# TEST_TARGET: human FPRL1 (Homo sapiens, UniProt P25090)
# Sequence (P25090 whole entry): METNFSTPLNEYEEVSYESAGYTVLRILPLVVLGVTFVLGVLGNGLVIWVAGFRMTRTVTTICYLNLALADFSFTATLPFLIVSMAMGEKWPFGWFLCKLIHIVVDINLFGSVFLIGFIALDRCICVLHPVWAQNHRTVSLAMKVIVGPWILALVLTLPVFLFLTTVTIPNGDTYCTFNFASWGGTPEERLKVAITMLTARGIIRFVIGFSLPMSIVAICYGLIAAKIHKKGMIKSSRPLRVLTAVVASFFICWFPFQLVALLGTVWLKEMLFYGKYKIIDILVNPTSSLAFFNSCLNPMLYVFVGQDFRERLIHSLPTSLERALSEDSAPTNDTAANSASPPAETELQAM
# ASSAY_SUMMARY: Measurement test of agonist activity on human FPRL1 (test of calcium mobilization in HEK293 cells transfected with human FPRL1 and Gα15)
# STATED_CONDITIONS: read-out: Efficacy EC50
VALUE_TYPE: EC50 (nM)

P = N/C(=N\OCCO)[C@H](Cc1ccc(Cl)cc1)NC(=O)Nc1ccc(Cl)cc1
Q = COc1ccc(C[C@H](NC(=O)Nc2ccc(Cl)cc2)c2ocnc2C(=O)N(C)C)cc1
R = COc1ccc(CC(CO)NC(=O)Nc2ccc(Br)cc2)cc1 (stereo not drawn)
Exam item: list the entries in increasing order of EC50. List labels; respect the requested ordering.
P, Q, R
(P: 0.2 nM, Q: 0.3 nM, R: 8.45 nM)

----------
# TEST_TARGET: human FPRL1 (Homo sapiens)
# ASSAY_SUMMARY: Measurement test of agonist activity on human FPRL1 (test of calcium mobilization in HEK293 cells transfected with human FPRL1 and Gα15)
# STATED_CONDITIONS: read-out: Efficacy EC50
VALUE_TYPE: EC50 (nM)

Past entries and their recorded results:
MOLECULE	TEST_TARGET	RECORDED_VALUE
CCc1ccc(C[C@H](NC(=O)Nc2ccc(Cl)cc2)c2nnn(CCO)n2)cc1	human FPRL1 (Homo sapiens)	0.22
COc1ccc(CC(NC(=O)Nc2ccc(Cl)cc2)/C(N)=N/O)cc1 (centres unmarked)	human FPRL1 (Homo sapiens)	0.34
CNC(=O)c1ncoc1[C@H](Cc1ccc(OC)cc1)NC(=O)Nc1ccc(Cl)cc1	human FPRL1 (Homo sapiens)	0.22
O=C(Nc1ccc(Cl)cc1)N[C@@H](Cc1ccc(Cl)cc1)c1nnn(CCO)n1	human FPRL1 (Homo sapiens)	2.7
COc1ccc(CC(Cc2nnc(O)o2)NC(=O)Nc2ccc(Cl)cc2)cc1 (centres unmarked)	human FPRL1 (Homo sapiens)	1.41
COc1ccc(C[C@H](CO)NC(=O)Nc2ccc(Cl)cc2)cc1	human FPRL1 (Homo sapiens)	4.12
COc1ccc(C[C@H](NC(=O)Nc2ccc(Cl)cc2)/C(N)=N/C(=O)CCO)cc1	human FPRL1 (Homo sapiens)	0.15
CCc1ccc(C[C@H](NC(=O)Nc2ccc(Cl)cc2)c2nnc(CCO)o2)cc1	human FPRL1 (Homo sapiens)	0.73
CN(CCO)c1nc([C@H](Cc2ccc(Cl)cc2)NC(=O)Nc2ccc(Cl)cc2)no1	human FPRL1 (Homo sapiens)	0.3
CCc1ccc(C[C@H](NC(=O)Nc2ccc(Cl)cc2)/C(N)=N/OCCO)cc1	human FPRL1 (Homo sapiens)	0.56

A = N/C(=N\C(=O)CCO)[C@H](Cc1ccc(Cl)cc1)NC(=O)Nc1ccc(Cl)cc1
B = COc1ccc(C[C@H](NC(=O)Nc2ccc(Cl)cc2)c2nnc(CCO)o2)cc1
C = COc1ccc(CC(NC(=O)Nc2ccc(Cl)cc2)/C(N)=N/C(=O)CO)cc1 (centres unmarked)
D = O=C(Nc1ccc(F)cc1)N[C@@H](Cc1ccc(Cl)cc1)c1nnn(CCO)n1
E = COc1ccc(C[C@H](NC(=O)Nc2ccc(Cl)cc2)c2nnn(CCO)n2)cc1
Thanks in advance: please rank these 5 entries by EC50, highest to lowest. List labels; respect the requested ordering.
D, A, C, E, B
